- study-target: AR (Homo sapiens)
- Construct: endogenous in cells; host or cells: VCaP cells
- procedure-summary: VCAP AR Degradation Assay
- Assay type: cell-based
- cond: VCaP cells, 24 h; lowest AR level normalized to DMSO control; given as numbers
measured-quantity: Ymin

May I ask what Ymin has been recorded for C[C@@H]1C[C@H](OCC[C@H]2CC[C@H](N3C(=S)N(c4cnc(C#N)c(C(F)(F)F)c4)C(=O)C3(C)C)CC2)C[C@H](C)N1CC(=O)Nc1ccc(C2CCC(=O)NC2=O)cc1 (stereo partly shown) [Cmpd 39] ? 14 % of DMSO control

====

- study-target: AR (Homo sapiens, UniProt P10275)
- Construct: endogenous in cells; host or cells: VCaP cells
- procedure-summary: VCAP AR Degradation Assay
- Assay type: cell-based
- cond: VCaP cells, 24 h, AR ELISA; concentration when AR level = 50% of DMSO control
- Description: VCAP AR Degradation Assay. Test compounds were pre-dispensed into a Corning CellBind 96-well clear bottom plate (Cat #3300) using an acoustic dispenser to make a 10-point concentration series at 1:3 dilution for each compound. The final top concentration of each compound was 5 μM. DMSO at a final concentration of 0.1% was used as a control. […] AR levels in compound-treated wells were normalized to that of DMSO control and expressed as percent of control (PoC) (y). […]
Counter-ions that a name gives are not always drawn.
measured-quantity: DC50

A selection of reference data follows.
C[C@@H]1C[C@@H](CCO[C@H]2CC[C@H](N3C(=S)N(c4ccc(C#N)c(C(F)(F)F)c4)C(=O)C3(C)C)CC2)C[C@H](C)N1CC(=O)Nc1ccc(C2CCC(=O)NC2=O)cc1 (stereo partly shown) [Cmpd 21, hydrochloride]: ≤ 5 nM
C[C@@H]1CN(CCO[C@H]2CC[C@H](N3C(=S)N(c4ccc(C#N)c(C(F)(F)F)c4)C(=O)C3(C)C)CC2)C[C@H](C)N1CC(=O)Nc1ccc(C2CCC(=O)NC2=O)cc1 (stereo partly shown) [Cmpd 2, hydrochloride]: 5 to 15 nM
CC1(C)C(=O)N(c2ccc(C#N)c(C(F)(F)F)c2)C(=S)N1[C@H]1CC[C@H](OCCN2CCN(CC(=O)Nc3ccc(C4CCC(=O)NC4=O)cc3)[C@@H](C(F)(F)F)C2)CC1 (stereo partly shown) [Cmpd 23, hydrochloride]: 5 to 15 nM
C[C@@H]1CN(CCC[C@H]2CC[C@H](N3C(=S)N(c4ccc(C#N)c(Cl)c4)C(=O)C3(C)C)CC2)C[C@H](C)N1CC(=O)Nc1ccc(C2CCC(=O)NC2=O)cc1 (stereo partly shown) [Cmpd 17, hydrochloride]: 5 to 15 nM
C[C@@H]1CN(CCO[C@H]2CC[C@H](N3C(=S)N(c4ccc(C#N)c(C(F)(F)F)c4)C(=O)C3(C)C)CC2)C[C@H](C)N1CC(=O)Nc1ccc(C2(C)CCC(=O)NC2=O)cc1 (single isomer, unassigned) [Cmpd 10, hydrochloride]: 100 to 10000 nM

Look up DC50 for this compound: CC[C@]1(c2ccc(NC(=O)CN3[C@H](C)CN(CCO[C@H]4CC[C@H](N5C(=S)N(c6ccc(C#N)c(C(F)(F)F)c6)C(=O)C5(C)C)CC4)C[C@@H]3C)cc2)CCC(=O)NC1=O [Cmpd 7, hydrochloride] 100 to 10000 nM

Quick one: DC50 of C[C@@H]1C[C@H](OCCO[C@H]2CC[C@H](N3C(=S)N(c4ccc(C#N)c(C(F)(F)F)c4)C(=O)C3(C)C)CC2)C[C@H](C)N1CC(=O)Nc1ccc(C2CCC(=O)NC2=O)cc1 (stereo partly shown) [Cmpd 42] ? 5 to 15 nM

Could you tell me which DC50 is on file for C[C@@H]1CN(CCCO[C@H]2CC[C@H](N3C(=S)N(c4ccc(C#N)c(Cl)c4)C(=O)C3(C)C)CC2)C[C@H](C)N1CC(=O)Nc1ccc(C2CCC(=O)NC2=O)cc1 (stereo partly shown) [Cmpd 14, hydrochloride] ? ≤ 5 nM

# input compound: C[C@@H]1C[C@H](CCO[C@H]2CC[C@H](N3C(=S)N(c4ccc(C#N)c(C(F)(F)F)c4)C(=O)C3(C)C)CC2)C[C@H](C)N1CC(=O)Nc1ccc(C2CCC(=O)NC2=O)cc1 (stereo partly shown) [Cmpd 22, hydrochloride] ; wanted: its DC50 ≤ 5 nM

# query: DC50 of entry C[C@@H]1CN(CCO[C@H]2CC[C@H](N3C(=S)N(c4ccc(C#N)c(C(F)(F)F)c4)C(=O)C3(C)C)CC2)C[C@H](C)N1CCC(=O)Nc1ccc(C2CCC(=O)NC2=O)cc1 (stereo partly shown) [Cmpd 5] 5 to 15 nM

Which value of DC50 has been reported for CC1(C)C(=O)N(c2cnc(C#N)c(C(F)(F)F)c2)C(=S)N1[C@H]1CC[C@H](CCCN2CCN(CC(=O)Nc3ccc(C4CCC(=O)NC4=O)cc3)[C@@H](C(F)(F)F)C2)CC1 (stereo partly shown) [Cmpd 33] in the records? 5 to 15 nM

I would be grateful if you could share the reported DC50 for CC1(C)C(=O)N(c2ccc(C#N)c(C(F)(F)F)c2)C(=S)N1[C@H]1CC[C@H](CCCN2CCN(CC(=O)Nc3ccc(C4CCC(=O)NC4=O)cc3)[C@@H](C(F)(F)F)C2)CC1 (stereo partly shown) [Cmpd 36] . 15 to 100 nM

Endpoint output: DC50 of CC1(C)C(=O)N(c2cnc(C#N)c(C(F)(F)F)c2)C(=S)N1[C@H]1CC[C@H](OCCC2CCN(CC(=O)Nc3ccc(C4CCC(=O)NC4=O)cc3)CC2(F)F)CC1 (stereo partly shown) [Cmpd 44] . Value? ≤ 5 nM

# get_value(readout='DC50', item= C[C@@H]1CN(CCCO[C@H]2CC[C@H](N3C(=S)N(c4ccc(C#N)c(C(F)(F)F)c4)C(=O)C3(C)C)CC2)C[C@H](C)N1CC(=O)Nc1cccc(N2CCC(=O)NC2=O)c1 [Cmpd 19, hydrochloride] ) ≤ 5 nM

Given the entry CC1(C)C(=O)N(c2ccc(C#N)c(C(F)(F)F)c2)C(=S)N1[C@H]1CC[C@H](OCCC2CCN(CC(=O)Nc3ccc(C4CCC(=O)NC4=O)cc3)CC2(F)F)CC1 (stereo partly shown) [Cmpd 43] , report its measured DC50. ≤ 5 nM

Recorded DC50 of C[C@@H]1CN(CCO[C@H]2CC[C@H](N3C(=S)N(c4cnc(C#N)c(C(F)(F)F)c4)C(=O)C3(C)C)CC2)C[C@H](C)N1CC(=O)Nc1ccc(C2CCC(=O)NC2=O)cc1 (stereo partly shown) [Cmpd 6, hydrochloride] , please. ≤ 5 nM

Return reported DC50; argument: C[C@@H]1CN(CCCC[C@H]2CC[C@H](N3C(=S)N(c4ccc(C#N)c(C(F)(F)F)c4)C(=O)C3(C)C)CC2)C[C@H](C)N1CC(=O)Nc1ccc(N2CCC(=O)NC2=O)cc1 [Cmpd 26] 5 to 15 nM

Given the compound C[C@@H]1C[C@H](OCC[C@H]2CC[C@H](N3C(=S)N(c4cnc(C#N)c(C(F)(F)F)c4)C(=O)C3(C)C)CC2)C[C@H](C)N1CC(=O)Nc1ccc(C2CCC(=O)NC2=O)cc1 (stereo partly shown) [Cmpd 39] , what is its reported DC50? ≤ 5 nM

Fill blank: measured DC50 of the compound C[C@@H]1C[C@H](CCO[C@H]2CC[C@H](N3C(=S)N(c4cnc(C#N)c(C(F)(F)F)c4)C(=O)C3(C)C)CC2)C[C@H](C)N1CC(=O)Nc1ccc(C2CCC(=O)NC2=O)cc1 (stereo partly shown) [Cmpd 27] is ____. ≤ 5 nM

====

- study-target: AR (Homo sapiens, UniProt P10275)
- Construct: endogenous in cells; host or cells: VCaP cells
- procedure-summary: VCAP AR Degradation Assay
- Format: cell-based
- cond: VCaP cells, 24 h; lowest AR level normalized to DMSO control; given as numbers
Entries annotated with measured Ymin

Below: 2 compounds and their reported Ymin.
CC1(C)C(=O)N(c2cnc(C#N)c(C(F)(F)F)c2)C(=S)N1[C@H]1CC[C@H](OCCC2CCN(CC(=O)Nc3ccc(C4CCC(=O)NC4=O)cc3)CC2(F)F)CC1 (stereo partly drawn): 12 % of DMSO control
CC1(C)C(=O)N(c2ccc(C#N)c(C(F)(F)F)c2)C(=S)N1[C@H]1CC[C@H](OCCCN2CCN(CC(=O)Nc3cccc(C4CCC(=O)NC4=O)c3)[C@@H](C(F)(F)F)C2)CC1 (stereo partly drawn): 21 % of DMSO control

// moving on: another record for Ymin
# lookup: Ymin of C[C@@H]1CN(CCCC[C@H]2CC[C@H](N3C(=S)N(c4ccc(C#N)c(C(F)(F)F)c4)C(=O)C3(C)C)CC2)C[C@H](C)N1CC(=O)Nc1ccc(N2CCC(=O)NC2=O)cc1 25 % of DMSO control

====

- study-target: AR (Homo sapiens, UniProt P10275)
- Construct: endogenous in cells; host or cells: VCaP cells
- Sequence (P10275 1-920): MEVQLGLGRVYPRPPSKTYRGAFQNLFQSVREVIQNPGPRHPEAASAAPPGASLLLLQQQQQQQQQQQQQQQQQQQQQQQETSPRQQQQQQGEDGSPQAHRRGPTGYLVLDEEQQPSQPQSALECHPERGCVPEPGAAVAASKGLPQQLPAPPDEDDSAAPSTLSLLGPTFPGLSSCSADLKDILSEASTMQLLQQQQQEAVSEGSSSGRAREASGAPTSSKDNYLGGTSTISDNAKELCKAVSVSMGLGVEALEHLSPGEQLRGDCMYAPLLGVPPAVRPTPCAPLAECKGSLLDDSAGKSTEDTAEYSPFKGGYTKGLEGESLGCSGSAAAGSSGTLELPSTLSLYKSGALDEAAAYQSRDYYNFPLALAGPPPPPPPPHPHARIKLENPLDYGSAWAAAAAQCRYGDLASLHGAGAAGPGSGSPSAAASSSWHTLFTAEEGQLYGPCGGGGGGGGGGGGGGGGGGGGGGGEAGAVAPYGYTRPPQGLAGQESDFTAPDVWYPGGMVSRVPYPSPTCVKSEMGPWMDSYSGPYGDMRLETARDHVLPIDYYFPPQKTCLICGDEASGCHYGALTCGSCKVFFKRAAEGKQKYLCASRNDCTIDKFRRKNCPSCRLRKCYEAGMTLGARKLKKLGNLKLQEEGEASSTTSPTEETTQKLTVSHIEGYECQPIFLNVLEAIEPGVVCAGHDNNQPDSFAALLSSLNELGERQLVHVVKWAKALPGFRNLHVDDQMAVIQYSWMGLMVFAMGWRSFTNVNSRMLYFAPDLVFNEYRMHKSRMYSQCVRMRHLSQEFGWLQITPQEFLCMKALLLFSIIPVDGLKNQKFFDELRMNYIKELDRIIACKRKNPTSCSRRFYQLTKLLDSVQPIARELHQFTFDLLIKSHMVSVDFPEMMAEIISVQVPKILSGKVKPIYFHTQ
- procedure-summary: VCAP AR Degradation Assay
- Assay type: cell-based
- cond: VCaP cells, 24 h; lowest AR level normalized to DMSO control; class symbols
Where a name gives a salt, the structure may show the parent alone.
measured-quantity: Ymin

C[C@@H]1CN(CCO[C@H]2CC[C@H](N3C(=S)N(c4ccc(C#N)c(C(F)(F)F)c4)C(=O)C3(C)C)CC2)C[C@H](C)N1CC(=O)Nc1ccc(C2(C)CCC(=O)NC2=O)cc1 (single isomer, unassigned) [Cmpd 9, hydrochloride]: *** (30%<Y<80%)
C[C@@H]1CN(CCC[C@H]2CC[C@H](N3C(=S)N(c4cnc(C#N)c(Cl)c4)C(=O)C3(C)C)CC2)C[C@H](C)N1CC(=O)Nc1ccc(C2CCC(=O)NC2=O)cc1 (some centres unmarked) [Cmpd 16, hydrochloride]: *** (30%<Y<80%)
C[C@@H]1CN(CCO[C@H]2CC[C@H](N3C(=S)N(c4ccc(C#N)c(C(F)(F)F)c4)C(=O)C3(C)C)CC2)C[C@H](C)N1CCC(=O)Nc1ccc(C2CCC(=O)NC2=O)cc1 (some centres unmarked): *** (30%<Y<80%)
